Measured pIC50 accompanies every entry in the list below.
System: 422866-222-R5-J1-PDC spheroids with HUVEC/MSC, viability
Test: Anticancer human tumor 422866-222-R5-J1-PDC patient-derived pancreatic adenocarcinoma cell line growth inhibition [GQUAD]
Conditions: curve of first compound; second compound 0.316 µM
pIC50: −log10 of the molar value.

Look over these answered cases.
C=CC(=O)N1CCN(c2nc(=O)n(-c3c(C)ccnc3C(C)C)c3nc(-c4c(O)cccc4F)c(F)cc23)C(C)C1 (stereo unspecified) + Cc1cnc(CNC(=O)c2c(=O)c3ccc(N4CCCN(C)CC4)nc3n3c2sc2ccccc23)cn1; > 7.50
CC1COCCN1c1cc(C2(S(C)(=N)=O)CC2)nc(-c2ccnc3[nH]ccc23)n1 (stereo unspecified) + Cc1[nH]c2ccc(F)cc2c1-c1nc2c3cccnc3c3ncccc3c2[nH]1; 5.26
CC1COCCN1c1cc(-c2ccnn2C)c2ccnc(-c3ccn[nH]3)c2n1 (stereo unspecified) + Cc1cnc(CNC(=O)c2c(=O)c3ccc(N4CCCN(C)CC4)nc3n3c2sc2ccccc23)cn1; < 5.00
C=CCn1c(=O)c2cnc(Nc3ccc(N4CCN(C)CC4)cc3)nc2n1-c1cccc(C(C)(C)O)n1 + Cc1[nH]c2ccc(F)cc2c1-c1nc2c3cccnc3c3ncccc3c2[nH]1; < 5.00
CC1COCCN1c1cc(-c2ccnn2C)c2ccnc(-c3ccn[nH]3)c2n1 (stereo unspecified) + CN(C)c1ccc(Nc2c3ccc(NC(=O)CCN4CCCC4)cc3nc3cc(NC(=O)CCN4CCCC4)ccc23)cc1; < 5.00

# input Please report the recorded pIC50 for O=c1[nH]cc(F)c(=O)[nH]1 + Cc1[nH]c2ccc(F)cc2c1-c1nc2c3cccnc3c3ncccc3c2[nH]1 .
# output < 5.00

# input Please report the recorded pIC50 for O=c1[nH]cc(F)c(=O)[nH]1 + CN(C)c1ccc(Nc2c3ccc(NC(=O)CCN4CCCC4)cc3nc3cc(NC(=O)CCN4CCCC4)ccc23)cc1 .
# output < 5.00

# input Please report the recorded pIC50 for CC(C)n1c(=O)n(C)c2cnc3cc(F)c(-c4ccc(OCCCN5CCCCC5)nc4)cc3c21 + CN(C)c1ccc(Nc2c3ccc(NC(=O)CCN4CCCC4)cc3nc3cc(NC(=O)CCN4CCCC4)ccc23)cc1 .
# output < 5.00

# input Please report the recorded pIC50 for C#Cc1c(F)ccc2cc(O)cc(-c3ncc4c(N5CC6CCC(C5)N6)nc(OCC56CCCN5CC(F)C6)nc4c3F)c12 (stereo unspecified) + CN(C)c1ccc(Nc2c3ccc(NC(=O)CCN4CCCC4)cc3nc3cc(NC(=O)CCN4CCCC4)ccc23)cc1 .
# output 5.92

# input Please report the recorded pIC50 for COc1ccc([C@@H](O)c2cc(-c3ncnc4cc(N5CCOCC5)ccc34)c(F)cc2Cl)nn1 + CN(C)c1ccc(Nc2c3ccc(NC(=O)CCN4CCCC4)cc3nc3cc(NC(=O)CCN4CCCC4)ccc23)cc1 .
# output 5.63

# input Please report the recorded pIC50 for C=CCn1c(=O)c2cnc(Nc3ccc(N4CCN(C)CC4)cc3)nc2n1-c1cccc(C(C)(C)O)n1 + Cc1cnc(CNC(=O)c2c(=O)c3ccc(N4CCCN(C)CC4)nc3n3c2sc2ccccc23)cn1 .
# output 5.88

###

Test system: 422866-222-R5-J1-PDC spheroids with HUVEC/MSC, viability
Assay: Anticancer human tumor 422866-222-R5-J1-PDC cell line growth inhibition [GQUAD];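 also: spheroids exposed to compounds for seven days before reading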;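 as to viability, T/C: percent viability relative to DMSO vehicle control taken as 100%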
Conditions: second compound 0.1 µM; first compound 0.316 µM; stronger effect = lower value
quantityKind: viability, T/C (%)
All answers are understood in %, so give the number only.

Look over these answered cases.
CC(=O)O[C@H]1C(=O)[C@@]2(C)[C@H]([C@H](OC(=O)c3ccccc3)[C@]3(O)C[C@H](OC(=O)[C@H](O)[C@@H](NC(=O)c4ccccc4)c4ccccc4)C(C)=C1C3(C)C)[C@]1(OC(C)=O)CO[C@@H]1C[C@@H]2O + Cc1cnc(CNC(=O)c2c(=O)c3ccc(N4CCCN(C)CC4)nc3n3c2sc2ccccc23)cn1; 77.1
Nc1ccn(C2OC(CO)C(O)C2(F)F)c(=O)n1 (stereo unspecified) + Cc1cnc(CNC(=O)c2c(=O)c3ccc(N4CCCN(C)CC4)nc3n3c2sc2ccccc23)cn1; 70.7
Cc1cccc(N(C)C(=O)C2C(O)CCN2c2nc(C)cc(C(F)(F)F)c2C#N)c1 (stereo unspecified) + Cc1[nH]c2ccc(F)cc2c1-c1nc2c3cccnc3c3ncccc3c2[nH]1; 116
O=C(c1cc(Cc2n[nH]c(=O)c3ccccc23)ccc1F)N1CCN(C(=O)C2CC2)CC1 + Cc1[nH]c2ccc(F)cc2c1-c1nc2c3cccnc3c3ncccc3c2[nH]1; 86
COc1ccc([C@@H](O)c2cc(-c3ncnc4cc(N5CCOCC5)ccc34)c(F)cc2Cl)nn1 + Cc1cnc(CNC(=O)c2c(=O)c3ccc(N4CCCN(C)CC4)nc3n3c2sc2ccccc23)cn1; 68.5

# evaluate next
# input Please report the recorded viability, T/C for C=CC(=O)N1CCN(c2nc(=O)n(-c3c(C)ccnc3C(C)C)c3nc(-c4c(O)cccc4F)c(F)cc23)C(C)C1 (stereo unspecified) + Cc1[nH]c2ccc(F)cc2c1-c1nc2c3cccnc3c3ncccc3c2[nH]1 .
# output 24.9

###

Tested on: 422866-222-R5-J1-PDC spheroids with HUVEC/MSC, viability
Experiment: Anticancer human tumor 422866-222-R5-J1-PDC cell line growth inhibition [GQUAD];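 also: spheroids exposed to compounds for seven days before reading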;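 as to viability, T/C: percent viability relative to DMSO vehicle control taken as 100%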
Details: second compound 3.16 µM; first compound 1 µM; stronger effect = lower value
Measured viability, T/C accompanies every entry in the list below.

Look over these answered cases.
C=CC(=O)N1CCN(c2nc(=O)n(-c3c(C)ccnc3C(C)C)c3nc(-c4c(O)cccc4F)c(F)cc23)C(C)C1 (stereo not given) + Cc1[nH]c2ccc(F)cc2c1-c1nc2c3cccnc3c3ncccc3c2[nH]1; 27.5%
CCCS(=O)(=O)Nc1ccc(F)c(C(=O)c2c[nH]c3ncc(-c4ccc(Cl)cc4)cc23)c1F + Cc1cnc(CNC(=O)c2c(=O)c3ccc(N4CCCN(C)CC4)nc3n3c2sc2ccccc23)cn1; 93.7%

# input // map CC1COCCN1c1cc(-c2ccnn2C)c2ccnc(-c3ccn[nH]3)c2n1 (stereo not given) + Cc1[nH]c2ccc(F)cc2c1-c1nc2c3cccnc3c3ncccc3c2[nH]1 to recorded viability, T/C (system: 422866-222-R5-J1-PDC spheroids with HUVEC/MSC, viability)
# output 42.6%

# input // map COc1cccc2c1C(=O)c1c(O)c3c(c(O)c1C2=O)CC(O)(C(=O)CO)CC3OC1CC(N)C(O)C(C)O1 (stereo not given) + Cc1[nH]c2ccc(F)cc2c1-c1nc2c3cccnc3c3ncccc3c2[nH]1 to recorded viability, T/C (system: 422866-222-R5-J1-PDC spheroids with HUVEC/MSC, viability)
# output 45.8%

# input // map C=CCn1c(=O)c2cnc(Nc3ccc(N4CCN(C)CC4)cc3)nc2n1-c1cccc(C(C)(C)O)n1 + Cc1cnc(CNC(=O)c2c(=O)c3ccc(N4CCCN(C)CC4)nc3n3c2sc2ccccc23)cn1 to recorded viability, T/C (system: 422866-222-R5-J1-PDC spheroids with HUVEC/MSC, viability)
# output 62.4%

###

Measured viability, T/C accompanies every entry in the list below.
Tested on: 422866-222-R5-J1-PDC spheroids with HUVEC/MSC, viability
Assay: Anticancer human tumor 422866-222-R5-J1-PDC cell line growth inhibition [GQUAD];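 also: spheroids exposed to compounds for seven days before reading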;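 as to viability, T/C: percent viability relative to DMSO vehicle control taken as 100%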
Settings: second compound 3.16 µM; first compound 10 µM; stronger effect = lower value
All answers are understood in %, so give the number only.

Look over these answered cases.
COc1cccc2c1C(=O)c1c(O)c3c(c(O)c1C2=O)CC(O)(C(=O)CO)CC3OC1CC(N)C(O)C(C)O1 (stereo not given) + CN(C)c1ccc(Nc2c3ccc(NC(=O)CCN4CCCC4)cc3nc3cc(NC(=O)CCN4CCCC4)ccc23)cc1; 36.5
CC(C)(O)C1CCC(Nc2ccc3ncc(-c4cccc(C(F)(F)F)c4)n3n2)CC1 (stereo not given) + Cc1cnc(CNC(=O)c2c(=O)c3ccc(N4CCCN(C)CC4)nc3n3c2sc2ccccc23)cn1; 54.1
CC(C)(O)C1CCC(Nc2ccc3ncc(-c4cccc(C(F)(F)F)c4)n3n2)CC1 (stereo not given) + Cc1[nH]c2ccc(F)cc2c1-c1nc2c3cccnc3c3ncccc3c2[nH]1; 29
COc1cc(C2c3cc4c(cc3C(OC3OC5COC(C)OC5C(O)C3O)C3COC(=O)C23)OCO4)cc(OC)c1O (stereo not given) + Cc1cnc(CNC(=O)c2c(=O)c3ccc(N4CCCN(C)CC4)nc3n3c2sc2ccccc23)cn1; 60

# evaluate next
# input Please report the recorded viability, T/C for C=CCn1c(=O)c2cnc(Nc3ccc(N4CCN(C)CC4)cc3)nc2n1-c1cccc(C(C)(C)O)n1 + Cc1[nH]c2ccc(F)cc2c1-c1nc2c3cccnc3c3ncccc3c2[nH]1 .
# output 76.9
